# Tested system: T1, native human ApoC3 (human, UniProt P02656 21-99)
# T1 construct: also called nhuApoC3; native huApoC3
# T1 sequence (P02656 21-99): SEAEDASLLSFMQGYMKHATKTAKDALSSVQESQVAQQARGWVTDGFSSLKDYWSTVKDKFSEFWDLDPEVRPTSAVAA
# Protocol description: SPR, ApoC3 over captured IgG1, pH 7.4
# Protocol: An inverted SPR assay was designed in which a test antibody was captured on an SPR chip, human ApoC3 protein was injected, and binding of ApoC3 to the antibody was measured. […] The resulting sensorgrams were analyzed using the BIAevaluation 4.1 software using Langmuir 1:1 binding model to derive binding kinetics. […]
Below, each entry is listed alongside its reported log10 koff.
Assay endpoint: log10 koff (log10 of the value in s⁻¹)

Binder	log10 koff
mAb20 (antibody, IgG1, V domains shown, Produced as full length IgG1 (kappa) in ExpiCHO-S cells; also called humanized anti-ApoC3 antibody mAb20) VH: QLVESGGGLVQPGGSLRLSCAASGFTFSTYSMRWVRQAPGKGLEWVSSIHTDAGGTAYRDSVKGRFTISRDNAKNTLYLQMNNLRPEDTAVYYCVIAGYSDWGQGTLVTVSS VL: DIVMTQSPGSLSVTPGEPASISCKTSQGLVHSGGKTYFYWFLQKPGQSPQQLIYQVSNRASGVPDRFTGSGSGTDFTLKISGVEAEDAGVYYCAHGTYYPHTFGQGTRLEIK	-1.13
mAb7 (antibody, V domains shown, Produced as full length IgG1 (kappa) in ExpiCHO-S cells; also called humanized anti-ApoC3 antibody mAb7) VH: QLVESGGGLVQPGGSLRLSCAASGFTFSTYSMRWVRQAPGKGLEWVSSIHTGGGGTAYRDSVKGRFTISRDNAKNTLYLQMNNLRAEDTAIYYCVIAGYSDWGQGTLVTVSS VL: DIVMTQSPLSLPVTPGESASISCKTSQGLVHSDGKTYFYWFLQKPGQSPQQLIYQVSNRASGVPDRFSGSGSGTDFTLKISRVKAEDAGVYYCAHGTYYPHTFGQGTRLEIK	-1.92
mAb11 (antibody, IgG1, V domains shown, Produced as full length IgG1 (kappa) in ExpiCHO-S cells; also called humanized anti-ApoC3 antibody mAb11) VH: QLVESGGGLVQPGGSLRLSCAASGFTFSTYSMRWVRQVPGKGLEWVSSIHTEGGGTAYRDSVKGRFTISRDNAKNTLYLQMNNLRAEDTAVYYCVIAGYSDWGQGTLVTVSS VL: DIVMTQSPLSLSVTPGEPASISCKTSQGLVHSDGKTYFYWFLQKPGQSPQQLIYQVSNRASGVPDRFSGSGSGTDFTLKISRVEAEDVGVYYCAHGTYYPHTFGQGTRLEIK	-2.28
mAb8 (antibody, IgG1, V domains shown, Produced as full length IgG1 (kappa) in ExpiCHO-S cells; also called humanized anti-ApoC3 antibody mAb8) VH: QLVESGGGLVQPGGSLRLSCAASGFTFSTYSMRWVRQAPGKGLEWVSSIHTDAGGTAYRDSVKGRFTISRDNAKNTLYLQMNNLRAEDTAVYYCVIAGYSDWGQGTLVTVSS VL: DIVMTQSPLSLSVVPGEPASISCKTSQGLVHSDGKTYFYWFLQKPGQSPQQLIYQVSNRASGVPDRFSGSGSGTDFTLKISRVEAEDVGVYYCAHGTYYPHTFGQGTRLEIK	-2.11
mAb9 (antibody, IgG1, V domains shown, Produced as full length IgG1 (kappa) in ExpiCHO-S cells; also called humanized anti-ApoC3 antibody mAb9) VH: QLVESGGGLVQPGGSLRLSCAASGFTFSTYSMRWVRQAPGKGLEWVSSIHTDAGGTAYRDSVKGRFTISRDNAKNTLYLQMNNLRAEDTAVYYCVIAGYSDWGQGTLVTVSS VL: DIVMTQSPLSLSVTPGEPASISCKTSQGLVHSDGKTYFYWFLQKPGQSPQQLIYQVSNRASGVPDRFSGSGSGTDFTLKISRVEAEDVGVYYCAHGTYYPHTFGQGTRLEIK	-2.17

Reference for the values: patent US20200239555A1
